Reported Ki is given for each of the following compounds.
biological target: Dimer of Gag-Pol polyprotein [501-599] (Human immunodeficiency virus 1); construct: 501-599; assay: Protease Inhibition Assay; settings: pH 5.5; 37 °C
State just the number; it will be interpreted in nM.

Could you tell me which Ki is on file for "Nc1cccc(CN2C(=O)N(Cc3cccc(N)c3)[C@H](Cc3ccccc3)[C@H](O)[C@@H](O)[C@H]2Cc2ccccc2)c1" ? 0.34

# ---- query compound ----
Could you tell me which Ki is on file for "O=C1N(CC2CCCC2)[C@H](Cc2ccccc2)[C@H](O)[C@@H](O)[C@@H](Cc2ccccc2)N1CC1CCCC1" ? 4
